Hello, the source for this data is ChEMBL document CHEMBL4152200, in case you need it.

Tested on: Human immunodeficiency virus 1
Assay: Resistance factor, ratio of EC50 for HIV1 harboring reverse transcriptase K103N mutant to EC50 for wild-type HIV-1 3B
Type: functional
Property Measured: Ratio EC50
Keep it simple and answer with nothing but the number.

Solved cases (6 shown):
Cc1cc(C)c(Oc2cc(Nc3ccc(C#N)cc3)ncc2C(=O)NCc2cn(CCCO)nn2)c(C)c1 :: 11.1
CC(=O)Cn1cc(CNC(=O)c2cnc(Nc3ccc(C#N)cc3)cc2Oc2c(C)cc(C)cc2C)nn1 :: 9
Cc1cc(C)c(Oc2cc(Nc3ccc(C#N)cc3)ncc2C(=O)NCc2cn(CCC#N)nn2)c(C)c1 :: 12.5
Cc1cc(C)c(Oc2cc(Nc3ccc(C#N)cc3)ncc2C(=O)NCc2cn(CC(=O)N3CCOCC3)nn2)c(C)c1 :: 19
Cc1cc(C)c(Oc2cc(Nc3ccc(C#N)cc3)ncc2C(=O)NCc2cn(CC(N)=O)nn2)c(C)c1 :: 6
CC(C)Nc1cccnc1N1CCN(C(=O)c2cc3cc(NS(C)(=O)=O)ccc3[nH]2)CC1 [DELAVIRDINE] :: 78.9

### Prompt Entry under review: `Cc1cc(C)c(Oc2cc(Nc3ccc(C#N)cc3)ncc2C(=O)NCc2cn(CC(=O)N3CCCC3)nn2)c(C)c1` . Reported Ratio EC50?
### Response 13.5
